Each entry below carries its recorded self-cleavage kobs at 2500 uM GlcN6P.
B1: glmS ribozyme (parent)
chain: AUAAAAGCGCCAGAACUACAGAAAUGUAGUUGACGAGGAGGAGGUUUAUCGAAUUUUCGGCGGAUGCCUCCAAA

Variants of: B1
Assay: self-cleavage kobs at 2500 uM GlcN6P; higher = faster cleavage; RNA array
Conditions: with glucosamine-6-phosphate
This sample holds only a part of the variants without activity.
The reply should be a number in s⁻¹, with the unit left off.

Solved cases below.
>  <seq_text>
AUAAAAGCGCCAGAACUACAGAAAUGUAGUCGACGAGGAGGAGGUGUAUCGAAUUUUCGGCGGAUGCCUCCAAA [U31C U46G]

>  <self-cleavage kobs at 2500 uM GlcN6P / s⁻¹>
0.000722

$$$$
>  <seq_text>
AUAAAAGCGCCAGAACUACAGAAAUGUAGUUGACGAGGAGGAGGUUUAUCGAUUUUUCGGCGGACGCCUCCAAA [A53U U65C]

>  <self-cleavage kobs at 2500 uM GlcN6P / s⁻¹>
0.000196

$$$$
>  <seq_text>
AUAAAAGCGCCAGAACUACAGAAAUGUAGUUGACGAGGAGGAGGUUUAUCGAAGUCUCGGCGGAUGCCUCCAAA [U54G U56C]

>  <self-cleavage kobs at 2500 uM GlcN6P / s⁻¹>
0.00123

$$$$
>  <seq_text>
AUAAAAGCGCCAGAACUACAGAAAUGUAGUUGACGAGGAGAAGGGUUAUCGAAUUUUCGGCGGAUGCCUCCAAA [G41A U45G]

>  <self-cleavage kobs at 2500 uM GlcN6P / s⁻¹>
0.000565

$$$$

Record request: self-cleavage kobs at 2500 uM GlcN6P value, item AUAAAAGCGCCAGAACUACAGAAAUGUAGUUGACGAGGAGGAGGGUUAUCGAAUUUUAGGCGGAUGCCUCCAAA [U45G C58A]
0.000147

meta.source: the supplement of paper PMC7125110
